For each of the compounds below, state its mass density.
- measurement.parameters: 298.15 K; 101.33 kPa; Liquid; Vibrating tube method
One number for each entry, in kg/m3.

1. CO :: 786.6
2. Cc1ccccc1 :: 862.22
3. CCCCO :: 805.79
4. c1ccsc1 :: 1058.46

Batch request: mass density per item, same order as input.
1. CCCO
2. CCO
3. c1ccccc1
4. CCCC[N+]1(C)CCCC1.N#C[B-](C#N)(C#N)C#N [1-butyl-1-methylpyrrolidinium tetracyanoborate]

Data returned:
1: 799.56; 2: 785.39; 3: 873.57; 4: 975.61
